- study system: panel of 60 human kinases (Homo sapiens)
- Construct: purchased Reaction Biology Corp
- Sequence (P49841 whole entry): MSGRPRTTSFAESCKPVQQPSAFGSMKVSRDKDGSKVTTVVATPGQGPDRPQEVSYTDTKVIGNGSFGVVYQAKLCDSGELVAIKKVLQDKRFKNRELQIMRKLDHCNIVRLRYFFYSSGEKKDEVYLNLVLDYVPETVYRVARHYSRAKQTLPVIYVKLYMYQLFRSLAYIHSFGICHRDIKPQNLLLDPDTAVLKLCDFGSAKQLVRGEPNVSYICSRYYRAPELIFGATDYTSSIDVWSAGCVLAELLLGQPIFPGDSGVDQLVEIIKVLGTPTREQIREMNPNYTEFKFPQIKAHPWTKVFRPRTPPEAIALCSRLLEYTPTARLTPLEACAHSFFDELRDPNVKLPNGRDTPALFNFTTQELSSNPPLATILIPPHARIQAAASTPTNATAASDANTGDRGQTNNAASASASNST
- assay details: Radiolabeled ATP kinase assay, panel of 60 kinases (Table S5)
- Format: biochemical
- condition details: GSK3b; 0.1 μM; 10 μM ATP; read-out: % Enzyme Activity (relative to DSMO controls)
remaining activity at 0.1 µM: recorded values
Report the value in % with no unit label.

Here are 3 compounds together with their reported answers.
Name the recorded remaining activity at 0.1 µM of the item CN1CCN(Cc2ccc(-c3cnc4[nH]cc(-c5ccc6c(c5)OCCO6)c4c3)cc2)CC1 [Compound 7d] in your answer.
30.9

For the compound CN1CCN(Cc2ccc(-c3cnc4[nH]cc(-c5cnn(Cc6ccccc6)c5)c4c3)cc2)CC1 [Compound 7ah] , give its measured remaining activity at 0.1 µM value.
60.6

Give remaining activity at 0.1 µM for CN1CCN(Cc2ccc(-c3cnc4[nH]cc(-c5ccoc5)c4c3)cc2)CC1 [Compound 7w]
85.1

Further cases:
State, in one line, measured remaining activity at 0.1 µM of CN1CCN(Cc2ccc(-c3cnc4[nH]cc(-c5ccc6[nH]ccc6c5)c4c3)cc2)CC1 [Compound 1, reference compound]
100

Assign remaining activity at 0.1 µM to the following record: CN1CCN(Cc2ccc(-c3cnc4[nH]cc(-c5cccc(Cl)c5)c4c3)cc2)CC1 [Compound 7ad]
98.1
